Biological target: AgrA (Staphylococcus aureus)
Construct: endogenous in cells; host or cells: S. aureus USA300 strain UAMS-1625 carrying a P3-lacZ reporter plasmid
Assay: cell-based
Set-up: species or system S. aureus
Settings: IC50 at 40 mg/mL HSA, LB medium supplemented with human serum albumin 40 mg/mL
pIC50: −log10 of the molar value.

{"molecule": "Cc1ccc(S(=O)(=O)c2nnn3c2[nH]c(=O)c2ccc(N4CCN(CC(=O)N5CCN6CCCC6C5)CC4)cc23)c(C)c1 (centres unmarked)", "pIC50": "> 4.78"}
{"molecule": "Cc1ccc(S(=O)(=O)c2nnn3c2[nH]c(=O)c2ccc(N4CCN(CC(=O)Nc5ccccc5)CC4)cc23)c(C)c1", "pIC50": "4.06 to 4.76"}
{"molecule": "Cc1ccc(S(=O)(=O)c2nnn3c2[nH]c(=O)c2ccc(N4CCN(CC(=O)NCCn5cccc5)CC4)cc23)c(C)c1", "pIC50": "4.07 to 4.77"}
{"molecule": "Cc1ccc(S(=O)(=O)c2nnn3c2[nH]c(=O)c2ccc(N4CCN(CC(=O)N5CCCN(C)CC5)CC4)cc23)c(C)c1", "pIC50": "> 4.77"}
{"molecule": "Cc1ccc(S(=O)(=O)c2nnn3c2[nH]c(=O)c2ccc(N4CCN(CC(=O)NCCO)CC4)cc23)c(C)c1", "pIC50": "4.03 to 4.73"}
{"molecule": "Cc1ccc(S(=O)(=O)c2nnn3c2[nH]c(=O)c2ccc(N4CCN(CC(=O)NCCN)CC4)cc23)c(C)c1", "pIC50": "4.03 to 4.73"}
{"molecule": "Cc1ccc(S(=O)(=O)c2nnn3c2[nH]c(=O)c2ccc(N4CCN(CC(=O)N5CCN(C)CC5)CC4)cc23)c(C)c1", "pIC50": "4.06 to 4.76"}
{"molecule": "Cc1ccc(S(=O)(=O)c2nnn3c2[nH]c(=O)c2ccc(N4CCN(CC(=O)N5CCC(CN)CC5)CC4)cc23)c(C)c1", "pIC50": "4.07 to 4.77"}
{"molecule": "COCCCNC(=O)CN1CCN(c2ccc3c(=O)[nH]c4c(S(=O)(=O)c5ccc(C)cc5C)nnn4c3c2)CC1", "pIC50": "4.06 to 4.75"}
{"molecule": "Cc1ccc(S(=O)(=O)c2nnn3c2[nH]c(=O)c2ccc(N4CCN(CC(=O)NCc5cocn5)CC4)cc23)c(C)c1", "pIC50": "4.06 to 4.76"}
{"molecule": "Cc1ccc(S(=O)(=O)c2nnn3c2[nH]c(=O)c2ccc(N4CCCN(CC(=O)NCCO)CC4)cc23)c(C)c1", "pIC50": "4.04 to 4.74"}
{"molecule": "Cc1ccc(S(=O)(=O)c2nnn3c2[nH]c(=O)c2ccc(N4CCN(CC(=O)N5CCC6(CCN(C)CC6)CC5)CC4)cc23)c(C)c1", "pIC50": "4.11 to 4.81"}
{"molecule": "Cc1ccc(S(=O)(=O)c2nnn3c2[nH]c(=O)c2ccc(N4CCN(CC(=O)N(C)C)CC4)cc23)c(C)c1", "pIC50": "4.02 to 4.72"}
{"molecule": "Cc1ccc(S(=O)(=O)c2nnn3c2[nH]c(=O)c2ccc(N4CCC4)cc23)c(C)c1 [Compound 45 of WO 2020/109350, reference compound]", "pIC50": "< 3.91"}
{"molecule": "Cc1ccc(S(=O)(=O)c2nnn3c2[nH]c(=O)c2ccc(N4CCN(CC(=O)NCC5CCN(C)CC5)CC4)cc23)c(C)c1", "pIC50": "4.08 to 4.78"}
{"molecule": "Cc1ccc(S(=O)(=O)c2nnn3c2[nH]c(=O)c2ccc(N4CCN(CC(=O)N5C[C@H]6CNC[C@H]6C5)CC4)cc23)c(C)c1", "pIC50": "4.07 to 4.77"}
{"molecule": "Cc1ccc(S(=O)(=O)c2nnn3c2[nH]c(=O)c2ccc(N4CCN(CC(=O)N5CC(C6CC6)C5)CC4)cc23)c(C)c1", "pIC50": "4.06 to 4.76"}
{"molecule": "Cc1ccc(S(=O)(=O)c2nnn3c2[nH]c(=O)c2ccc(N4CCN(CC(=O)NCCc5cccs5)CC4)cc23)c(C)c1", "pIC50": "4.08 to 4.78"}
{"molecule": "Cc1ccc(S(=O)(=O)c2nnn3c2[nH]c(=O)c2ccc(N4CCN(CC(=O)NCCOCCO)CC4)cc23)c(C)c1", "pIC50": "4.07 to 4.77"}
{"molecule": "Cc1ccc(S(=O)(=O)c2nnn3c2[nH]c(=O)c2ccc(N4CCN(CC(=O)NCCN5CCN(C)CC5)CC4)cc23)c(C)c1", "pIC50": "4.09 to 4.79"}
{"molecule": "Cc1ccc(S(=O)(=O)c2nnn3c2[nH]c(=O)c2ccc(N4CCN(CC(=O)NCCN5CCCCC5)CC4)cc23)c(C)c1", "pIC50": "4.08 to 4.78"}
{"molecule": "CCN(C)C(=O)CN1CCN(c2ccc3c(=O)[nH]c4c(S(=O)(=O)c5ccc(C)cc5C)nnn4c3c2)CC1", "pIC50": "4.03 to 4.73"}
{"molecule": "Cc1ccc(S(=O)(=O)c2nnn3c2[nH]c(=O)c2ccc(N4CCCN(CC(=O)NC5CCC5)CC4)cc23)c(C)c1", "pIC50": "4.05 to 4.75"}
{"molecule": "Cc1ccc(S(=O)(=O)c2nnn3c2[nH]c(=O)c2ccc(N4CCN(CC(=O)N5CCCCC5)CC4)cc23)c(C)c1", "pIC50": "4.05 to 4.75"}
{"molecule": "Cc1ccc(S(=O)(=O)c2nnn3c2[nH]c(=O)c2ccc(N4CCN(CC(=O)NC5CC5)CC4)cc23)c(C)c1", "pIC50": "4.03 to 4.73"}
{"molecule": "Cc1ccc(S(=O)(=O)c2nnn3c2[nH]c(=O)c2ccc(N4CCN(CC(=O)NCCC(F)(F)F)CC4)cc23)c(C)c1", "pIC50": "4.07 to 4.77"}

====

Quick reference: pIC50 of the listed items.
Target: AgrA (Staphylococcus aureus)
Construct: endogenous in cells; host or cells: S. aureus USA300 strain UAMS-1625 carrying a P3-lacZ reporter plasmid
Assay: cell-based
Set-up: species or system S. aureus
Conditions: IC50 without HSA, LB medium, no human serum albumin, 18 hours incubation
pIC50: −log10 of the molar value.

{"smiles.repr": "COCCNC(=O)CN1CCN(c2ccc3c(=O)[nH]c4c(S(=O)(=O)c5ccc(C)cc5C)nnn4c3c2)CC1", "target.or.system": "AgrA (Staphylococcus aureus)", "pIC50": "> 5.74"}
{"smiles.repr": "Cc1ccc(S(=O)(=O)c2nnn3c2[nH]c(=O)c2ccc(N4CCN(CC(=O)N5CCOCC5)CC4)cc23)c(C)c1", "target.or.system": "AgrA (Staphylococcus aureus)", "pIC50": "> 5.75"}
{"smiles.repr": "Cc1ccc(S(=O)(=O)c2nnn3c2[nH]c(=O)c2ccc(N4CCN(CC(=O)NC5CCN(C)CC5)CC4)cc23)c(C)c1", "target.or.system": "AgrA (Staphylococcus aureus)", "pIC50": "5.07 to 5.77"}
{"smiles.repr": "Cc1ccc(S(=O)(=O)c2nnn3c2[nH]c(=O)c2ccc(N4CCN(CC(=O)NCc5ccccc5)CC4)cc23)c(C)c1", "target.or.system": "AgrA (Staphylococcus aureus)", "pIC50": "> 5.77"}
{"smiles.repr": "Cc1ccc(S(=O)(=O)c2nnn3c2[nH]c(=O)c2ccc(N4CCCN(CC(=O)N5CCCCC5)CC4)cc23)c(C)c1", "target.or.system": "AgrA (Staphylococcus aureus)", "pIC50": "5.06 to 5.76"}
{"smiles.repr": "Cc1ccc(S(=O)(=O)c2nnn3c2[nH]c(=O)c2ccc(N4CCCN(CC(=O)Nc5ccccc5)CC4)cc23)c(C)c1", "target.or.system": "AgrA (Staphylococcus aureus)", "pIC50": "> 5.77"}
{"smiles.repr": "Cc1ccc(S(=O)(=O)c2nnn3c2[nH]c(=O)c2ccc(N4CCN(CC(=O)NCc5cocn5)CC4)cc23)c(C)c1", "target.or.system": "AgrA (Staphylococcus aureus)", "pIC50": "> 5.76"}

====

Target: AgrA (Staphylococcus aureus, UniProt P0A0I7)
Construct: endogenous in cells; host or cells: S. aureus USA300 strain UAMS-1625 carrying a P3-lacZ reporter plasmid
Sequence (P0A0I7 whole entry): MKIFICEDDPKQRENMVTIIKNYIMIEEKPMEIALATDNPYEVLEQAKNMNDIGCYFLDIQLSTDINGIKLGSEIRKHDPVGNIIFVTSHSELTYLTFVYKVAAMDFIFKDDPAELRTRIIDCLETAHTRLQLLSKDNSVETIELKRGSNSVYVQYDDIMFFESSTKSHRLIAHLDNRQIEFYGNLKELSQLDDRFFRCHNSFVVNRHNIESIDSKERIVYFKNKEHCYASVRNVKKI
Assay: cell-based
Design: species or system S. aureus
Settings: IC50 at 40 mg/mL HSA, LB medium supplemented with human serum albumin 40 mg/mL
Protocol: The inventive compounds are 3-(phenylsulfonyl)-[1,2,3]triazolo[1,5a]quinazolin-5(4h)-one derivatives comprising an N-bound piperazine or homopiperazine at the 8-position of the [1,2,3]triazolo[1,5a]quinazolin-5(4h)-one core, further substituted (on the second nitrogen atom) by an (optionally substituted) acetyl or propionyl amide group. […] The β-galactosidase produced by expression of lacZ cleaved the MUG into galactopyranose and 4-methylumbelliferone, which was measured by fluorescence. […]
Quick reference: IC50 of the listed items.

{"compound": "Cc1ccc(S(=O)(=O)c2nnn3c2[nH]c(=O)c2ccc(N4CCN(CC(=O)NCc5cccnc5)CC4)cc23)c(C)c1", "IC50": "17 to 85.2 µM"}
{"compound": "Cc1ccc(S(=O)(=O)c2nnn3c2[nH]c(=O)c2ccc(N4CCN(CC(=O)NCCC(C)C)CC4)cc23)c(C)c1", "IC50": "17.7 to 88.4 µM"}
{"compound": "Cc1ccc(S(=O)(=O)c2nnn3c2[nH]c(=O)c2ccc(N4CCN(CC(=O)NC5CCN(C)CC5)CC4)cc23)c(C)c1", "IC50": "16.9 to 84.4 µM"}
{"compound": "Cc1ccc(S(=O)(=O)c2nnn3c2[nH]c(=O)c2ccc(N4CCN(CC(=O)N5CCC(N)C5)CC4)cc23)c(C)c1 (stereo not shown)", "IC50": "17.7 to 88.5 µM"}
{"compound": "Cc1ccc(S(=O)(=O)c2nnn3c2[nH]c(=O)c2ccc(N4CCN(CC(=O)N5CCCN(CCO)CC5)CC4)cc23)c(C)c1", "IC50": "16.1 to 80.3 µM"}
{"compound": "Cc1ccc(S(=O)(=O)c2nnn3c2[nH]c(=O)c2ccc(N4CCN(CC(=O)NC5CCNC5)CC4)cc23)c(C)c1 (stereo not shown)", "IC50": "17.7 to 88.5 µM"}
{"compound": "Cc1ccc(S(=O)(=O)c2nnn3c2[nH]c(=O)c2ccc(N4CCN(CC(=O)NCCCC5CCCCC5)CC4)cc23)c(C)c1", "IC50": "16.1 to 80.7 µM"}
{"compound": "Cc1ccc(S(=O)(=O)c2nnn3c2[nH]c(=O)c2ccc(N4CCN(CC(=O)NCC(C)C)CC4)cc23)c(C)c1", "IC50": "18.1 to 90.6 µM"}
{"compound": "Cc1ccc(S(=O)(=O)c2nnn3c2[nH]c(=O)c2ccc(N4CCN(CC(=O)N(C)C5CCCCC5)CC4)cc23)c(C)c1", "IC50": "16.9 to 84.5 µM"}
{"compound": "Cc1ccc(S(=O)(=O)c2nnn3c2[nH]c(=O)c2ccc(N4CCCN(CCC(=O)N5CCCC5)CC4)cc23)c(C)c1", "IC50": "< 17.3 µM"}
{"compound": "Cc1ccc(S(=O)(=O)c2nnn3c2[nH]c(=O)c2ccc(N4CCN(CC(=O)N5CCCCC5CN)CC4)cc23)c(C)c1 (stereo not shown)", "IC50": "16.9 to 84.4 µM"}
{"compound": "Cc1ccc(S(=O)(=O)c2nnn3c2[nH]c(=O)c2ccc(N4CCN(CC(=O)N5CCOCC5)CC4)cc23)c(C)c1", "IC50": "< 17.7 µM"}
{"compound": "Cc1ccc(S(=O)(=O)c2nnn3c2[nH]c(=O)c2ccc(N4CCN(CC(=O)NCCc5ccncc5)CC4)cc23)c(C)c1", "IC50": "16.6 to 83.2 µM"}

Data origin, for the record: patent US20250376472A1
